As shown below, each of these compounds has a reported GI50 value.
system: BE(2)-C; experiment: Antiproliferative activity against human BE2C cells assessed as cell growth inhibition incubated for 72 hrs by MTT assay; type: functional
attribute measured: GI50 (µM)

[[record]]
compound = "O=C1NC(c2ccc(O)cc2)Nc2ccccc21 (stereo not given)"
attribute_measured = "GI50"
result = 4.1

[[record]]
compound = "O=C1NC(c2cc3ccccc3o2)Nc2ccccc21 (stereo not given)"
attribute_measured = "GI50"
result = 3.1

[[record]]
compound = "COc1ccc(/C=C/c2nc3ccccc3c(=O)[nH]2)cc1"
attribute_measured = "GI50"
result = 4.4

[[record]]
compound = "O=C1NC(c2ccc(-c3ccccc3)cc2)Nc2ccccc21 (stereo not given)"
attribute_measured = "GI50"
result = 2

[[record]]
compound = "Cc1ccc2[nH]cc(-c3nc4ccccc4c(=O)[nH]3)c2c1"
attribute_measured = "GI50"
result = 0.63


---

system: BE(2)-C; experiment: Antiproliferative activity against human BE2C cells assessed as cell growth inhibition at 25 uM incubated for 72 hrs by MTT assay relative to control; type: functional
Overview of reported inhibition at 25 µM across a group of compounds:
attribute measured: inhibition at 25 µM (%)

[[record]]
compound = "O=C1NC(c2ccccc2Br)Nc2ccccc21 (centres undefined)"
attribute_measured = "inhibition at 25 µM"
operator = ">"
result = 100

[[record]]
compound = "O=C1NC(c2ccccc2[N+](=O)[O-])Nc2ccccc21 (centres undefined)"
attribute_measured = "inhibition at 25 µM"
operator = "<"
result = 10

[[record]]
compound = "O=c1[nH]c(/C=C/c2ccc(O)cc2)nc2ccccc12"
attribute_measured = "inhibition at 25 µM"
operator = ">"
result = 100

[[record]]
compound = "N#Cc1ccc(C2NC(=O)c3ccccc3N2)cc1 (centres undefined)"
attribute_measured = "inhibition at 25 µM"
operator = "<"
result = 10

[[record]]
compound = "O=C1NC(c2cccc(Br)c2)Nc2ccccc21 (centres undefined)"
attribute_measured = "inhibition at 25 µM"
operator = ">"
result = 100

[[record]]
compound = "O=C1NC(/C=C/c2ccco2)Nc2ccccc21 (centres undefined)"
attribute_measured = "inhibition at 25 µM"
operator = "="
result = 100

[[record]]
compound = "CC(C)(C)c1ccc(C2NC(=O)c3ccccc3N2)cc1 (centres undefined)"
attribute_measured = "inhibition at 25 µM"
operator = "="
result = 47

[[record]]
compound = "O=c1[nH]c(/C=C/c2cccc(O)c2)nc2ccccc12"
attribute_measured = "inhibition at 25 µM"
operator = ">"
result = 100

[[record]]
compound = "O=C1NC(c2cccc([N+](=O)[O-])c2)Nc2ccccc21 (centres undefined)"
attribute_measured = "inhibition at 25 µM"
operator = "="
result = 58

[[record]]
compound = "O=C1NC(C2CCCCC2)Nc2ccccc21 (centres undefined)"
attribute_measured = "inhibition at 25 µM"
operator = "="
result = 32

[[record]]
compound = "O=C1NC(c2ccc(Br)cc2)Nc2ccccc21 (centres undefined)"
attribute_measured = "inhibition at 25 µM"
operator = ">"
result = 100

[[record]]
compound = "O=C1NC(c2cccnc2)Nc2ccccc21 (centres undefined)"
attribute_measured = "inhibition at 25 µM"
operator = "<"
result = 10

[[record]]
compound = "O=C1NC(c2cccc(C(F)(F)F)c2)Nc2ccccc21 (centres undefined)"
attribute_measured = "inhibition at 25 µM"
operator = ">"
result = 100

[[record]]
compound = "COc1cc2c(c(OC)c1OC)-c1ccc(OC)c(=O)cc1[C@@H](NC(C)=O)CC2"
attribute_measured = "inhibition at 25 µM"
operator = "="
result = 61

[[record]]
compound = "Cc1ccc(C2NC(=O)c3ccccc3N2)cc1 (centres undefined)"
attribute_measured = "inhibition at 25 µM"
operator = "="
result = 87

[[record]]
compound = "O=C1NC(C2CC=CCC2)Nc2ccccc21 (centres undefined)"
attribute_measured = "inhibition at 25 µM"
operator = "="
result = 97

[[record]]
compound = "O=C1NC(c2ccc3ccccc3c2)Nc2ccccc21 (centres undefined)"
attribute_measured = "inhibition at 25 µM"
operator = "="
result = 98

[[record]]
compound = "O=C1NC(c2ccc3nsnc3c2)Nc2ccccc21 (centres undefined)"
attribute_measured = "inhibition at 25 µM"
operator = "="
result = 64

[[record]]
compound = "O=C(O)c1ccc(C2NC(=O)c3ccccc3N2)cc1 (centres undefined)"
attribute_measured = "inhibition at 25 µM"
operator = "="
result = 12

[[record]]
compound = "O=C1NC(c2cccc3ccccc23)Nc2ccccc21 (centres undefined)"
attribute_measured = "inhibition at 25 µM"
operator = ">"
result = 100

[[record]]
compound = "CCCCC1NC(=O)c2ccccc2N1 (centres undefined)"
attribute_measured = "inhibition at 25 µM"
operator = "="
result = 38

[[record]]
compound = "O=C1NC(c2cc3ccccc3o2)Nc2ccccc21 (centres undefined)"
attribute_measured = "inhibition at 25 µM"
operator = "="
result = 66

[[record]]
compound = "Oc1nc(-c2ccncc2)nc2ccccc12"
attribute_measured = "inhibition at 25 µM"
operator = "<"
result = 10

[[record]]
compound = "O=C1NC(C2CCCC2)Nc2ccccc21 (centres undefined)"
attribute_measured = "inhibition at 25 µM"
operator = "="
result = 20

[[record]]
compound = "O=c1[nH]c(/C=C/c2ccccc2)nc2ccccc12"
attribute_measured = "inhibition at 25 µM"
operator = ">"
result = 100

[[record]]
compound = "O=c1[nH]c(-c2ccccc2Br)nc2ccccc12"
attribute_measured = "inhibition at 25 µM"
operator = "="
result = 23

[[record]]
compound = "O=C1NC(c2ccc(-c3ccccc3)cc2)Nc2ccccc21 (centres undefined)"
attribute_measured = "inhibition at 25 µM"
operator = "="
result = 92

[[record]]
compound = "COc1ccccc1/C=C/c1nc2ccccc2c(=O)[nH]1"
attribute_measured = "inhibition at 25 µM"
operator = ">"
result = 100

[[record]]
compound = "O=C1NC(/C=C/c2ccccc2[N+](=O)[O-])Nc2ccccc21 (centres undefined)"
attribute_measured = "inhibition at 25 µM"
operator = "="
result = 53


Source listed as ChEMBL document CHEMBL5532698.
